Target: human RORγ-LBD (Homo sapiens, UniProt P51449)
Construct: made in house; host or cells: E. coli (BL-21)
Sequence (P51449 262-518): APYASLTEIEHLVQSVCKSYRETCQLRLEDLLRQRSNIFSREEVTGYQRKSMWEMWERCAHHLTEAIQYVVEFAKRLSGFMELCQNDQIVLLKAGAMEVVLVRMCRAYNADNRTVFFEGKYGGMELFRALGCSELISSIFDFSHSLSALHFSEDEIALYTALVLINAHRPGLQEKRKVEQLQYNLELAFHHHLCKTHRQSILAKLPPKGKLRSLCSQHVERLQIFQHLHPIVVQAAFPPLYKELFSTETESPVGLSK
Assay: ROR gamma coactivator peptide recruitment Alphascreen assay (RORγ-LBD binding to GRIP1 coactivator peptide)
Assay type: biochemical
Details: 5 nM human RORγ-LBD, 30 nM 7-β-hydroxycholesterol, 50 nM biotinylated GRIP1 coactivator peptide, overnight incubation at room temperature; read-out: result (pIC50, RORγ coactivator peptide recruitment Alphascreen assay) (converted)
Recorded IC50, one value per entry.
Please reply with the bare figure in nM and do not write the unit itself.

// solved cases for IC50 follow
INSERT INTO assay_data (compound, unit_label, reported_value) VALUES
  ('CC(C)(C#N)CCN(CC(=O)c1c(Cl)cccc1Cl)C(=O)c1cnn([C@H]2CC[C@](C)(C(=O)O)CC2)c1C(F)(F)F', 'nM', 229),
  ('C[C@@H]1C[C@@H](n2ncc(C(=O)N(CC(=O)c3c(Cl)ccc(F)c3Cl)[C@H]3C[C@@H]4[C@H](C3)C4(C)C)c2C(F)(F)F)CC[C@@H]1C(=O)O', 'nM', 1.45),
  ('Cc1cc(Cl)c(C(=O)CN(CC2(C)CC2)C(=O)c2cnn([C@H]3CC[C@@](C)(C(=O)O)CC3)c2C(F)(F)F)c(Cl)c1', 'nM', 2.09);

Param item = Cc1cc(Cl)c(C(=O)CN(C(=O)c2cnn([C@H]3CC[C@](C)(C(=O)O)CC3)c2C(F)(F)F)[C@H]2C[C@@H]3CC[C@H]2C3)c(Cl)c1 ; retrieve measured IC50.
1.07

Subsequent entry: CC1(C)CCC(N(CCc2c(Cl)cccc2Cl)C(=O)c2cnn([C@H]3CC[C@H](C(=O)O)CC3)c2C(F)(F)F)CC1
7.94

Subsequent entry: C[C@H]1CC[C@H](CN(CC(=O)c2c(Cl)cncc2Cl)C(=O)c2cnn([C@H]3CC[C@](C)(C(=O)O)CC3)c2C(F)(F)F)O1 [Example 614]
53.7

---

Biological target: human RORγ-LBD (Homo sapiens, UniProt P51449)
Construct: made in house; host or cells: E. coli (BL-21)
Test: ROR gamma coactivator peptide recruitment Alphascreen assay (RORγ-LBD binding to GRIP1 coactivator peptide)
Format: biochemical
Details: 5 nM human RORγ-LBD, 30 nM 7-β-hydroxycholesterol, 50 nM biotinylated GRIP1 coactivator peptide, overnight incubation at room temperature; read-out: result (pIC50, RORγ coactivator peptide recruitment Alphascreen assay) (converted)
Endpoint name: IC50 (nM)
Please reply with the bare figure in nM and do not write the unit itself.

INSERT INTO measurements (compound, target_or_system, reported_value) VALUES
  ('CC(C)(C)CN(C[C@H](O)c1c(Cl)cccc1Cl)C(=O)c1cnn([C@H]2CC[C@H](C(=O)O)CC2)c1C(F)(F)F [Example 573]', 'human RORγ-LBD (Homo sapiens, UniProt P51449)', 79.4);

Param item = O=C(c1cnn([C@H]2CC[C@H](C(=O)O)CC2)c1C(F)(F)F)N(CCc1cccc2cc[nH]c12)Cc1ccc(Cl)cc1 [Example 508] ; retrieve measured IC50.
759

Subsequent entry: O=C(CN(Cc1ccc(C(F)(F)F)cc1)C(=O)c1cnn([C@H]2CC[C@H](C(=O)O)CC2)c1C(F)(F)F)c1c(Cl)cccc1Cl [Example 527]
8.32

Subsequent entry: Cc1cc(Cl)c(C(=O)CN(CC2(C)CCCCC2)C(=O)c2cnn([C@H]3CC[C@H](C(=O)O)CC3)c2C(F)(F)F)c(Cl)c1 [Example 519]
5.13

Subsequent entry: Cc1cc(Cl)c(C(=O)CN(C(=O)c2cnn(C3CCC(C(=O)O)CC3)c2C(F)(F)F)C2CCC(C)(C)CC2)c(Cl)c1 (stereo in doubt) [Example 516]
6.03

Subsequent entry: C[C@]1(C(=O)O)CC[C@H](n2ncc(C(=O)N(CC(=O)c3c(Cl)cncc3Cl)C[C@]34CC[C@H](CC3)O4)c2C(F)(F)F)CC1 [Example 853]
17

---

Molecular target: ligand binding domain of human ROR gamma (Homo sapiens)
Construct: NM_001001523; expressed in transfected cells; host or cells: HEK293T
Sequence (P51449 247-497 isoform P51449-2): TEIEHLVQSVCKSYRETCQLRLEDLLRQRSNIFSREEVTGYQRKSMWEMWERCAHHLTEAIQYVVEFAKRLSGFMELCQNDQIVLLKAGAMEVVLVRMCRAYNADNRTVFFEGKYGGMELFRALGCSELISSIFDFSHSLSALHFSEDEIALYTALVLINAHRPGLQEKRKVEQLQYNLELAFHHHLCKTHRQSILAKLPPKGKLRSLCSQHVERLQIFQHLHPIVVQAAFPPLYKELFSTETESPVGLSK
Test: ROR gamma reporter gene assay (GAL4-RORγ LBD luciferase, Dual-Glo)
Format: cell-based
Conditions: HEK293T cells transfected with pM-ROR gamma, 8 concentrations 3.5 nM to 10.5 μM, 24 h incubation; read-out: result (pIC50, inhibition of RORγ transcriptional activity) (converted)
Recorded log10 IC50, one value per entry.
The figures below represent log10 of IC50, where IC50 is stated in pM.

// solved cases for log10 IC50 follow
INSERT INTO results (smiles_entry, target_or_system, endpoint_name, reported_value) VALUES
  ('CC1(C)CC(CN(CC(=O)c2c(Cl)cncc2Cl)C(=O)c2cnn([C@H]3CC[C@H](C(=O)O)CC3)c2C(F)(F)F)C1', 'ligand binding domain of human ROR gamma (Homo sapiens)', 'log10 IC50', 4.38),
  ('CC1(C)[C@@H]2C[C@H](N(CC(=O)c3c(Cl)cccc3C(F)(F)F)C(=O)c3cnn([C@H]4CC[C@](C)(C(=O)O)CC4)c3C(F)(F)F)C[C@@H]21', 'ligand binding domain of human ROR gamma (Homo sapiens)', 'log10 IC50', 3.62),
  ('O=C(CN(C[C@@H]1CCOC1)C(=O)c1cnn([C@H]2CC[C@H](C(=O)O)CC2)c1C(F)(F)F)c1c(Cl)cncc1Cl', 'ligand binding domain of human ROR gamma (Homo sapiens)', 'log10 IC50', 6.19),
  ('Cc1cc(Cl)c(C(=O)CN(CC#CC(C)(C)C)C(=O)c2cnn([C@H]3CC[C@](C)(C(=O)O)CC3)c2C(F)(F)F)c(Cl)c1', 'ligand binding domain of human ROR gamma (Homo sapiens)', 'log10 IC50', 5.00),
  ('Cc1cc(Cl)c(C(=O)CN(CC2CC(C)(C)C2)C(=O)c2cnn([C@H]3CC[C@](C)(C(=O)O)CC3)c2C(F)(F)F)c(Cl)c1', 'ligand binding domain of human ROR gamma (Homo sapiens)', 'log10 IC50', 3.64),
  ('N#C[C@]1(C(=O)O)CC[C@H](n2ncc(C(=O)N(CC(=O)c3c(Cl)cncc3Cl)Cc3ccc(F)cc3)c2C(F)(F)F)CC1', 'ligand binding domain of human ROR gamma (Homo sapiens)', 'log10 IC50', 6.94),
  ('CC(C)CCN(CC(=O)c1c(Cl)cncc1Cl)C(=O)c1cnn([C@H]2CC[C@H](C(=O)O)CC2)c1C(F)(F)F', 'ligand binding domain of human ROR gamma (Homo sapiens)', 'log10 IC50', 4.91),
  ('CC(C)(C)[C@@H]1C[C@H]1N(CC(=O)c1c(Cl)cncc1Cl)C(=O)c1cnn([C@H]2CC[C@](C)(C(=O)O)CC2)c1C(F)(F)F', 'ligand binding domain of human ROR gamma (Homo sapiens)', 'log10 IC50', 5.01);

Param item = O=C(CN(Cc1cc(F)cc(F)c1)C(=O)c1cnn([C@H]2CC[C@H](C(=O)NO)CC2)c1C(F)(F)F)c1c(Cl)cncc1Cl ; retrieve measured log10 IC50.
5.32

---

Recorded IC50, one value per entry.
Molecular target: human RORγ-LBD (Homo sapiens, UniProt P51449)
Construct: made in house; host or cells: E. coli (BL-21)
Experiment: ROR gamma coactivator peptide recruitment Alphascreen assay (RORγ-LBD binding to GRIP1 coactivator peptide)
Format: biochemical
Conditions: 5 nM human RORγ-LBD, 30 nM 7-β-hydroxycholesterol, 50 nM biotinylated GRIP1 coactivator peptide, overnight incubation at room temperature; read-out: result (pIC50, RORγ coactivator peptide recruitment Alphascreen assay) (converted)
Please reply with the bare figure in nM and do not write the unit itself.

// solved cases for IC50 follow
INSERT INTO measurements (compound, endpoint_name, reported_value) VALUES
  ('Cc1cc(Cl)c(C(=O)CN(CC(C)(C)C)C(=O)c2cnn([C@H]3CC[C@](C)(C(=O)O)CC3)c2C(F)(F)F)c(Cl)n1 [Example 687]', 'IC50', 14.8),
  ('CC1(CN(CC(=O)c2c(Cl)cncc2Cl)C(=O)c2cnn([C@H]3CC[C@H](CC(=O)O)CC3)c2C(F)(F)F)CCC1 [Example 775]', 'IC50', 3.02),
  ('C[C@@H]1C[C@](C)(C(=O)O)CC[C@H]1n1ncc(C(=O)N(CC(=O)c2c(Cl)cncc2Cl)CC(C)(C)C)c1C(F)(F)F (stereo in doubt) [Example 855]', 'IC50', 5.75),
  ('CC1(C)CC(CN(CC(=O)c2ccccc2Br)C(=O)c2cnn([C@H]3CC[C@@H](C(=O)O)CC3)c2C(F)(F)F)C1 [Example 585]', 'IC50', 69.2),
  ('C[C@]1(C(=O)O)CC[C@H](n2ncc(C(=O)N3CC4(CCCC4)C[C@@H]3Cc3c(Cl)cncc3Cl)c2C(F)(F)F)CC1 [Example 582]', 'IC50', 22.9);

Turning now to a further compound:
Param item = CC1(C)[C@@H]2C[C@H](N(CC(=O)c3c(Cl)ccc(F)c3Cl)C(=O)c3cnn([C@H]4CC[C@](C)(C(=O)O)CC4)c3C(F)(F)F)C[C@@H]21 [Example 763] ; retrieve measured IC50.
1.62
